# measured target: T1, full-length beta-Catenin (Uniprot ID P35222) (Homo sapiens (Human), UniProt P35222 1-781)
# T1 construct: also called bCat
# T1 sequence: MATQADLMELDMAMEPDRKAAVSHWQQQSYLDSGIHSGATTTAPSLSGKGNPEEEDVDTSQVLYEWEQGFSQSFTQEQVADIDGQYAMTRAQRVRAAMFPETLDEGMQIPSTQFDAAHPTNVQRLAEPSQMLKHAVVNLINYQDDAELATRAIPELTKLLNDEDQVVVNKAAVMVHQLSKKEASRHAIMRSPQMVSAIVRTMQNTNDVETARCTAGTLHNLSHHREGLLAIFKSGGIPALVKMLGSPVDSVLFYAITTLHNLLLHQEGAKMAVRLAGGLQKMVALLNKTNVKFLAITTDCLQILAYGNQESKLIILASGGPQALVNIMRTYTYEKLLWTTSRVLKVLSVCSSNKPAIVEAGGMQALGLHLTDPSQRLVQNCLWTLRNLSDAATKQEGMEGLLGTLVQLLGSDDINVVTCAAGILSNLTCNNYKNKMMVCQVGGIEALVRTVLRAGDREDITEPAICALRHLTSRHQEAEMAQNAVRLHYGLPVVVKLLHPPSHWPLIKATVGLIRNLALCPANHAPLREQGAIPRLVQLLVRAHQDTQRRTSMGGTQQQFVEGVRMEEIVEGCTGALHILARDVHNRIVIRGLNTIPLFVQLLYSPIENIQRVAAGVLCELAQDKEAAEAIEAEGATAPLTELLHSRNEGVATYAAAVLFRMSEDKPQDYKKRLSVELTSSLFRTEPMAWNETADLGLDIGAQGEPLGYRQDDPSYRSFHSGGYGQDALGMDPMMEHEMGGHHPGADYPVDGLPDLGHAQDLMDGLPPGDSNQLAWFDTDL
# measurement protocol: fluorescence polarization competition; full-length beta-catenin; competitor 5FAM-TCF4(10-53) probe
Starred links: 1 amine or outer side, 2 acyl side, 3 side chain; linkers in the order of their positions; H or OH if unused. Positions of bridges follow the written chain, without caps; N, C: chain ends. Non-standard residues stand in square brackets, D forms with d. Primed or numbered codes have the meaning given here. PyrS2(3) = (S)-3-amino-1-((pent-4-en-1-yloxy)carbonyl)pyrrolidine-3-carboxylic acid, stapling residue, C=CCCCOC(=O)N1CC[C@@](N[*:1])(C(=O)[*:2])C1; PyrS2″ = (S)-3-amino-1-((pent-4-en-1-yloxy)carbonyl)pyrrolidine-3-carboxylic acid (stapling residue), C=CCCCOC(=O)N1CC[C@@](N[*:1])(C(=O)[*:2])C1; B5(16) = 2-amino-2-(pent-4-en-1-yl)hept-6-enoic acid = 2,2-bis(4-pentenyl)glycine (stitching residue), C=CCCCC(CCCC=C)(N[*:1])C(=O)[*:2]; Phe(2-Cl) = N[C@@H](Cc1ccccc1Cl)C(=O)O; Bta = N[C@@H](Cc1csc2ccccc12)C(=O)O; αAllylPro = C=CC[C@@]1(C(=O)O)CCCN1; tBuAla = CC(C)(C)C[C@H](N)C(=O)O; Cha = N[C@@H](CC1CCCCC1)C(=O)O; R5 = C=CCCC[C@@](C)(N)C(=O)O
value kind: pEC50
Answers are plain numbers, as −log10 of the molar value.

Hi there! I need pEC50 for each item below, if you can.
1. Ac-[αAllylPro]DF[B5(16)]DDLLFS[PyrS2″][Phe(2-Cl)][Bta]Q-NH2 (staple 1-4, 4-11, stapled peptide) [I-1155]
2. Ac-PD[Cha][R5]DDAAFT[PyrS2(3)][Phe(2-Cl)][Bta]S-NH2 (staple 4-11, stapled peptide (single staple)) [I-1184]
3. Ac-PD[tBuAla][R5]DDAAFN[PyrS2(3)][Phe(2-Cl)][Bta]Q-NH2 (staple 4-11, stapled peptide (single staple)) [I-1183]

Out:
1. 7.22
2. 6.76
3. 6.39
